Parameter: inhibition at 1.111 µM. Scope: all listed entries.
target: Human VPS34 (Homo sapiens, UniProt Q8NEB9); construct: GST (N); host or cells: SF9 insect cells (baculovirus); assay: Human VPS34 Enzyme Assay (Adapta TR-FRET); format: biochemical; settings: compound at 1.111 μM; read-out: Average VPS34 % INH @ 1.111 μM
Sequence (Q8NEB9 whole entry): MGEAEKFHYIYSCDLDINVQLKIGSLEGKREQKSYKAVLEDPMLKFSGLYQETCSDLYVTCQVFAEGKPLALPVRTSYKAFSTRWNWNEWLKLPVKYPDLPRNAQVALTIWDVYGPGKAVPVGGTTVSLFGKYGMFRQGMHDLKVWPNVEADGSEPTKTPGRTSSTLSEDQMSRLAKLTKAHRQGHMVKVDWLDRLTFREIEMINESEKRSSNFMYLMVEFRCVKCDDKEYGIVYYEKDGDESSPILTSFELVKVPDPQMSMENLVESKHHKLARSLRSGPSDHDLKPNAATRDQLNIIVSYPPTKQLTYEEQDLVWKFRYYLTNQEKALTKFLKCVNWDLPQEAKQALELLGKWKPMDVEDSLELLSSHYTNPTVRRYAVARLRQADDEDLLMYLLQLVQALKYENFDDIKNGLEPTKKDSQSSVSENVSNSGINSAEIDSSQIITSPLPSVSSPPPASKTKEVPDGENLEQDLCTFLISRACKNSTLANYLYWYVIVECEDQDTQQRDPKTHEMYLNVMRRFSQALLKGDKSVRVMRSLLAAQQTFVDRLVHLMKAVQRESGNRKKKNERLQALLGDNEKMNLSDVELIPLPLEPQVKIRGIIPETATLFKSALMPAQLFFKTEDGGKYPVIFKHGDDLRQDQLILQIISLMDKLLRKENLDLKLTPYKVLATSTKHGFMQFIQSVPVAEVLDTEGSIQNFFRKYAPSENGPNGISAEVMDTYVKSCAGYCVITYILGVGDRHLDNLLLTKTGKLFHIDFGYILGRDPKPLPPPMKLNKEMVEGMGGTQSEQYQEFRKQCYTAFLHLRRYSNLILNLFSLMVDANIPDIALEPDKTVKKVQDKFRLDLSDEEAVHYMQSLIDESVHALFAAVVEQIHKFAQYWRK
Response body: numeric value in %, unit text excluded.

The cases that follow already have their inhibition at 1.111 µM on record.
Cc1cnc(NC(=O)C2CC2)cc1-c1nc(C(N)=O)c(-c2ccccc2Cl)o1
117
COCCNC(=O)c1cc(-c2cc(NC(C)=O)ncc2C)oc1-c1ccccc1Cl
116
COC(CNC(=O)c1cc(-c2cc(NC(C)=O)ncc2C)oc1-c1ccccc1Cl)OC
110
CNC(=O)c1cc(-c2cc(NC(C)=O)ncc2C)oc1-c1ccccc1Cl
152
CC(=O)Nc1cc(-c2cc(C(=O)NC(C)C)c(-c3ccccc3Cl)o2)c(C)cn1
78

Lab note: "C=CCCC(=O)Nc1cc(-c2nc(-c3nnc[nH]3)c(-c3ccccc3Cl)o2)ccn1" gave inhibition at 1.111 µM of 98

The compound listed as CC(=O)Nc1cc(-c2cc(C(=O)NC[C@@H](C)O)c(-c3ccccc3Cl)o2)c(C)cn1 (stereo in doubt) shows inhibition at 1.111 µM equal to 131

Value of inhibition at 1.111 µM reported for the compound "CC(=O)Nc1cc(-c2nc(-c3cc(CN(C)C)ccc3Cl)c(-c3nnc[nH]3)o2)c(C)cn1" is 115

Source: patent US8859768B2
